Provenance of the data: paper PMC8162404

Listed here: items and their measured Kd.
- SUBJECT OF TEST: Gal-1 (Homo sapiens, UniProt P09382)
- Construct: made in house; host or cells: E. coli BL21(DE3)
- Sequence (P09382 whole entry): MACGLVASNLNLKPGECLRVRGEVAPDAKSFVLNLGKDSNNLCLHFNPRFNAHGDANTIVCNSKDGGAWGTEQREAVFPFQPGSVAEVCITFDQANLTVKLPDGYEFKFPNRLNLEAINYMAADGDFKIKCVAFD
- TEST METHOD NOTES: Pull-down assay with immobilized protein and LSM libraries
- Type: binding
- CONDITION SUMMARY: H12 library; 1:1 binding assumed; read-out: Surface mapping KD (apparent)
EXPERIMENTAL ENDPOINT: Kd (µM)

>  <COMPOUND>
CC(C)[C@@H](CC(=O)N[C@H]1CCC[C@@H]1C(=O)N[C@H]1CCC[C@@H]1C(=O)N[C@@H](CC(=O)O)CC(=O)N[C@H]1CCC[C@@H]1C(=O)N[C@H]1CCC[C@@H]1C(N)=O)NC(=O)[C@H]1CCC[C@@H]1NC(=O)[C@H]1CCC[C@@H]1N [H12 VD]

>  <EXPERIMENTAL ENDPOINT>
Kd

>  <NUMERIC READOUT>
480

$$$$
>  <COMPOUND>
C[C@@H](CC(=O)N[C@H]1CCC[C@@H]1C(=O)N[C@H]1CCC[C@@H]1C(=O)N[C@H](CC(=O)N[C@H]1CCC[C@@H]1C(=O)N[C@H]1CCC[C@@H]1C(N)=O)Cc1ccc(O)cc1)NC(=O)[C@H]1CCC[C@@H]1NC(=O)[C@H]1CCC[C@@H]1N [H12 AY]

>  <EXPERIMENTAL ENDPOINT>
Kd

>  <NUMERIC READOUT>
422

$$$$

* * *

# pKd per entry
- SUBJECT OF TEST: S100B (Homo sapiens)
- Construct: made in house; host or cells: Escherichia coli BL21(DE3)
- Sequence (P04271 whole entry): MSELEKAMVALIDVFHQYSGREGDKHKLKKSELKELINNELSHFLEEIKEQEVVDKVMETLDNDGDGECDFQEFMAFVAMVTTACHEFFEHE
- TEST METHOD NOTES: Pull-down assay with immobilized protein and LSM libraries
- Assay type: binding
- CONDITION SUMMARY: H14 library; 1:1 binding assumed; read-out: Surface mapping KD (apparent)
pKd: −log10 of the molar value.

>  <SMILES>
NCCCC[C@@H](CC(=O)N[C@H]1CCCC[C@@H]1C(N)=O)NC(=O)[C@H]1CCCC[C@@H]1NC(=O)[C@H]1CCCC[C@@H]1NC(=O)C[C@H](Cc1ccccc1)NC(=O)[C@H]1CCCC[C@@H]1N

>  <pKd>
4.20

$$$$
>  <SMILES>
N=C(N)NCCC[C@@H](CC(=O)N[C@H]1CCCC[C@@H]1C(=O)N[C@H]1CCCC[C@@H]1C(=O)N[C@H](CC(=O)N[C@H]1CCCC[C@@H]1C(N)=O)Cc1c[nH]c2ccccc12)NC(=O)[C@H]1CCCC[C@@H]1N

>  <pKd>
4.89

$$$$
>  <SMILES>
NC(=O)[C@H]1CCCC[C@@H]1NC(=O)C[C@H](Cc1ccccc1)NC(=O)[C@H]1CCCC[C@@H]1NC(=O)[C@H]1CCCC[C@@H]1NC(=O)C[C@H](CCC(=O)O)NC(=O)[C@H]1CCCC[C@@H]1N

>  <pKd>
3.32

$$$$
>  <SMILES>
CC[C@H](C)[C@@H](CC(=O)N[C@H]1CCCC[C@@H]1C(N)=O)NC(=O)[C@H]1CCCC[C@@H]1NC(=O)[C@H]1CCCC[C@@H]1NC(=O)C[C@@H](NC(=O)[C@H]1CCCC[C@@H]1N)[C@@H](C)O

>  <pKd>
3.74

$$$$
>  <SMILES>
CC(C)C[C@@H](CC(=O)N[C@H]1CCCC[C@@H]1C(=O)N[C@H]1CCCC[C@@H]1C(=O)N[C@H](CC(=O)N[C@H]1CCCC[C@@H]1C(N)=O)[C@@H](C)O)NC(=O)[C@H]1CCCC[C@@H]1N

>  <pKd>
3.79

$$$$
>  <SMILES>
NC(=O)[C@H]1CCCC[C@@H]1NC(=O)C[C@H](Cc1ccc(O)cc1)NC(=O)[C@H]1CCCC[C@@H]1NC(=O)[C@H]1CCCC[C@@H]1NC(=O)C[C@H](Cc1ccc(O)cc1)NC(=O)[C@H]1CCCC[C@@H]1N

>  <pKd>
3.92

$$$$
>  <SMILES>
CC(C)[C@@H](CC(=O)N[C@H]1CCCC[C@@H]1C(=O)N[C@H]1CCCC[C@@H]1C(=O)N[C@H](CC(=O)N[C@H]1CCCC[C@@H]1C(N)=O)Cc1ccc(O)cc1)NC(=O)[C@H]1CCCC[C@@H]1N

>  <pKd>
3.96

$$$$
>  <SMILES>
NC(=O)[C@H]1CCCC[C@@H]1NC(=O)C[C@H](Cc1ccccc1)NC(=O)[C@H]1CCCC[C@@H]1NC(=O)[C@H]1CCCC[C@@H]1NC(=O)C[C@H](Cc1ccc(O)cc1)NC(=O)[C@H]1CCCC[C@@H]1N

>  <pKd>
4.47

$$$$
>  <SMILES>
NC(=O)CC[C@@H](CC(=O)N[C@H]1CCCC[C@@H]1C(=O)N[C@H]1CCCC[C@@H]1C(=O)N[C@H](CC(=O)N[C@H]1CCCC[C@@H]1C(N)=O)Cc1c[nH]c2ccccc12)NC(=O)[C@H]1CCCC[C@@H]1N

>  <pKd>
4.10

$$$$

* * *

# pKd per entry
- SUBJECT OF TEST: S100A4 (Homo sapiens, UniProt P26447)
- Construct: made in house; host or cells: Escherichia coli BL21(DE3)
- Sequence (P26447 whole entry): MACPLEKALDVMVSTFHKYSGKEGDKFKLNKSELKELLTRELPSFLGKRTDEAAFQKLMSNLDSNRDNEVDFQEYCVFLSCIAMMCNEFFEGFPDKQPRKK
- TEST METHOD NOTES: Competition pull-down with native ligand NMIIA (1893–1923)
- Format: binding
- CONDITION SUMMARY: H14 library; competitor peptide 200 µM; read-out: Surface mapping KD (apparent), competition
pKd: −log10 of the molar value.

>  <COMPOUND>
CC(C)C[C@@H](CC(=O)N[C@H]1CCCC[C@@H]1C(=O)N[C@H]1CCCC[C@@H]1C(=O)N[C@H](CC(=O)N[C@H]1CCCC[C@@H]1C(N)=O)Cc1c[nH]c2ccccc12)NC(=O)[C@H]1CCCC[C@@H]1N [H14 LW]

>  <SUBJECT OF TEST>
S100A4 (Homo sapiens, UniProt P26447)

>  <pKd>
3.61

$$$$
>  <COMPOUND>
CC(C)[C@@H](CC(=O)N[C@H]1CCCC[C@@H]1C(N)=O)NC(=O)[C@H]1CCCC[C@@H]1NC(=O)[C@H]1CCCC[C@@H]1NC(=O)C[C@H](Cc1ccccc1)NC(=O)[C@H]1CCCC[C@@H]1N [H14 FV]

>  <SUBJECT OF TEST>
S100A4 (Homo sapiens, UniProt P26447)

>  <pKd>
3.42

$$$$
>  <COMPOUND>
CSCC[C@@H](CC(=O)N[C@H]1CCCC[C@@H]1C(N)=O)NC(=O)[C@H]1CCCC[C@@H]1NC(=O)[C@H]1CCCC[C@@H]1NC(=O)C[C@H](CC(C)C)NC(=O)[C@H]1CCCC[C@@H]1N [H14 LM]

>  <SUBJECT OF TEST>
S100A4 (Homo sapiens, UniProt P26447)

>  <pKd>
3.50

$$$$
>  <COMPOUND>
CC(C)C[C@@H](CC(=O)N[C@H]1CCCC[C@@H]1C(N)=O)NC(=O)[C@H]1CCCC[C@@H]1NC(=O)[C@H]1CCCC[C@@H]1NC(=O)C[C@H](CC(C)C)NC(=O)[C@H]1CCCC[C@@H]1N [H14 LL]

>  <SUBJECT OF TEST>
S100A4 (Homo sapiens, UniProt P26447)

>  <pKd>
3.93

$$$$
>  <COMPOUND>
CC[C@H](C)[C@@H](CC(=O)N[C@H]1CCCC[C@@H]1C(N)=O)NC(=O)[C@H]1CCCC[C@@H]1NC(=O)[C@H]1CCCC[C@@H]1NC(=O)C[C@H](Cc1c[nH]c2ccccc12)NC(=O)[C@H]1CCCC[C@@H]1N [H14 WI]

>  <SUBJECT OF TEST>
S100A4 (Homo sapiens, UniProt P26447)

>  <pKd>
3.59

$$$$
>  <COMPOUND>
CC[C@H](C)[C@@H](CC(=O)N[C@H]1CCCC[C@@H]1C(=O)N[C@H]1CCCC[C@@H]1C(=O)N[C@H](CC(=O)N[C@H]1CCCC[C@@H]1C(N)=O)Cc1ccccc1)NC(=O)[C@H]1CCCC[C@@H]1N [H14 IF]

>  <SUBJECT OF TEST>
S100A4 (Homo sapiens, UniProt P26447)

>  <pKd>
3.79

$$$$
>  <COMPOUND>
CC(C)C[C@@H](CC(=O)N[C@H]1CCCC[C@@H]1C(N)=O)NC(=O)[C@H]1CCCC[C@@H]1NC(=O)[C@H]1CCCC[C@@H]1NC(=O)C[C@@H](NC(=O)[C@H]1CCCC[C@@H]1N)C(C)C [H14 VL]

>  <SUBJECT OF TEST>
S100A4 (Homo sapiens, UniProt P26447)

>  <pKd>
3.61

$$$$
>  <COMPOUND>
NC(=O)[C@H]1CCCC[C@@H]1NC(=O)C[C@H](Cc1c[nH]c2ccccc12)NC(=O)[C@H]1CCCC[C@@H]1NC(=O)[C@H]1CCCC[C@@H]1NC(=O)C[C@H](Cc1ccccc1)NC(=O)[C@H]1CCCC[C@@H]1N [H14 FW]

>  <SUBJECT OF TEST>
S100A4 (Homo sapiens, UniProt P26447)

>  <pKd>
3.36

$$$$
>  <COMPOUND>
CC[C@H](C)[C@@H](CC(=O)N[C@H]1CCCC[C@@H]1C(=O)N[C@H]1CCCC[C@@H]1C(=O)N[C@H](CC(=O)N[C@H]1CCCC[C@@H]1C(N)=O)Cc1c[nH]c2ccccc12)NC(=O)[C@H]1CCCC[C@@H]1N [H14 IW]

>  <SUBJECT OF TEST>
S100A4 (Homo sapiens, UniProt P26447)

>  <pKd>
3.61

$$$$
>  <COMPOUND>
CC[C@H](C)[C@@H](CC(=O)N[C@H]1CCCC[C@@H]1C(N)=O)NC(=O)[C@H]1CCCC[C@@H]1NC(=O)[C@H]1CCCC[C@@H]1NC(=O)C[C@@H](NC(=O)[C@H]1CCCC[C@@H]1N)[C@@H](C)CC [H14 II]

>  <SUBJECT OF TEST>
S100A4 (Homo sapiens, UniProt P26447)

>  <pKd>
4.00

$$$$
>  <COMPOUND>
CC[C@H](C)[C@@H](CC(=O)N[C@H]1CCCC[C@@H]1C(N)=O)NC(=O)[C@H]1CCCC[C@@H]1NC(=O)[C@H]1CCCC[C@@H]1NC(=O)C[C@H](Cc1ccccc1)NC(=O)[C@H]1CCCC[C@@H]1N [H14 FI]

>  <SUBJECT OF TEST>
S100A4 (Homo sapiens, UniProt P26447)

>  <pKd>
3.55

$$$$
>  <COMPOUND>
CC(C)C[C@@H](CC(=O)N[C@H]1CCCC[C@@H]1C(=O)N[C@H]1CCCC[C@@H]1C(=O)N[C@H](CC(=O)N[C@H]1CCCC[C@@H]1C(N)=O)Cc1ccccc1)NC(=O)[C@H]1CCCC[C@@H]1N [H14 LF]

>  <SUBJECT OF TEST>
S100A4 (Homo sapiens, UniProt P26447)

>  <pKd>
3.85

$$$$
>  <COMPOUND>
NC(=O)[C@H]1CCCC[C@@H]1NC(=O)C[C@H](Cc1c[nH]c2ccccc12)NC(=O)[C@H]1CCCC[C@@H]1NC(=O)[C@H]1CCCC[C@@H]1NC(=O)C[C@H](Cc1c[nH]c2ccccc12)NC(=O)[C@H]1CCCC[C@@H]1N [H14 WW]

>  <SUBJECT OF TEST>
S100A4 (Homo sapiens, UniProt P26447)

>  <pKd>
3.34

$$$$
>  <COMPOUND>
CC[C@H](C)[C@@H](CC(=O)N[C@H]1CCCC[C@@H]1C(=O)N[C@H]1CCCC[C@@H]1C(=O)N[C@H](CC(=O)N[C@H]1CCCC[C@@H]1C(N)=O)CC(C)C)NC(=O)[C@H]1CCCC[C@@H]1N [H14 IL]

>  <SUBJECT OF TEST>
S100A4 (Homo sapiens, UniProt P26447)

>  <pKd>
4.00

$$$$
>  <COMPOUND>
CC(C)[C@@H](CC(=O)N[C@H]1CCCC[C@@H]1C(=O)N[C@H]1CCCC[C@@H]1C(=O)N[C@H](CC(=O)N[C@H]1CCCC[C@@H]1C(N)=O)Cc1ccccc1)NC(=O)[C@H]1CCCC[C@@H]1N [H14 VF]

>  <SUBJECT OF TEST>
S100A4 (Homo sapiens, UniProt P26447)

>  <pKd>
3.32

$$$$
>  <COMPOUND>
NC(=O)[C@H]1CCCC[C@@H]1NC(=O)C[C@H](Cc1c[nH]c2ccccc12)NC(=O)[C@H]1CCCC[C@@H]1NC(=O)[C@H]1CCCC[C@@H]1NC(=O)C[C@H](Cc1ccc(O)cc1)NC(=O)[C@H]1CCCC[C@@H]1N [H14 YW]

>  <SUBJECT OF TEST>
S100A4 (Homo sapiens, UniProt P26447)

>  <pKd>
3.41

$$$$
>  <COMPOUND>
N=C(N)NCCC[C@@H](CC(=O)N[C@H]1CCCC[C@@H]1C(=O)N[C@H]1CCCC[C@@H]1C(=O)N[C@H](CC(=O)N[C@H]1CCCC[C@@H]1C(N)=O)Cc1ccc(O)cc1)NC(=O)[C@H]1CCCC[C@@H]1N [H14 RY]

>  <SUBJECT OF TEST>
S100A4 (Homo sapiens, UniProt P26447)

>  <pKd>
3.49

$$$$
>  <COMPOUND>
NC(=O)[C@H]1CCCC[C@@H]1NC(=O)C[C@H](Cc1ccc(O)cc1)NC(=O)[C@H]1CCCC[C@@H]1NC(=O)[C@H]1CCCC[C@@H]1NC(=O)C[C@H](Cc1c[nH]c2ccccc12)NC(=O)[C@H]1CCCC[C@@H]1N [H14 WY]

>  <SUBJECT OF TEST>
S100A4 (Homo sapiens, UniProt P26447)

>  <pKd>
3.44

$$$$
